Hello, the source for this data is paper PMC7866087, in case you need it.

tested on: TWEAK-Fn14 signalling pathway, BRV5 cells; test: Cell-based screening of individual peptides, gene expression microarray in TWEAK-stimulated BRV5 cells; design: species or system human; details: individual peptides, BRV5 + TWEAK, 450 µM, 6 h; replicate column 2
Param label: returns rule met when NFKB2 mRNA expression (normalized to NARS2) < 0.05, returns rule not met otherwise, including exact equality.

Illustrative cases are given below, each with its answer.
> print(dat)
                     substance   label.class
1     46: TGYAENV [Peptide 46]  rule not met
2        SGVSTAQLD [Peptide 4]      rule met
3  1: GNGTDDNSGTSY [Peptide 1]      rule met
4        TKGGGTADA [Peptide 3]  rule not met
5    SWYDHMAGDSSY [Peptide 35]      rule met

Threshold test, NFKB2 mRNA expression (normalized to NARS2) < 0.05: 30: DNGGGNTDIYSE [Peptide 30]
rule met

I wonder whether 13: YSGYFGGFY [Peptide 13] has NFKB2 mRNA expression (normalized to NARS2) below 0.05. Can you tell?
rule not met

Lab note: confirm whether the reported NFKB2 mRNA expression (normalized to NARS2) for this substance is below 0.05, equality not counting. substance: 42: YNGHVKDD [Peptide 42]
rule not met

Bench note: check whether 11: SGVAYQETT [Peptide 11] shows NFKB2 mRNA expression (normalized to NARS2) below 0.05
rule met
